Source listed as paper PMC3188589.

- Substrate: O=C(O)C(=O)CC(O)C(=O)O
- assay_details: purified protein
- Format: biochemical, Homo sapiens
- test_settings: racemic HOG, 100 mM TRIS pH 8.5, 37°C, aldol cleavage
The reader will find reported kcat values listed item by item below.
Quick reminder: number only, in s⁻¹, skip the unit.

[[record]]
protein = "human HOGA (hHOGA) (Homo sapiens) (protein, His-tag (WT, Y140F) cleavable by PreScission leaving GPH, 33,097 Da tag-free; S77, N78 and S198 mutants as MBP fusion, MBP cleaved; tetramer) ASGEGKKVDIAGIYPPVTTPFTATAEVDYGKLEENLHKLGTFPFRGFVVQGSNGEFPFLTSSERLEVVSRVRQAMPKNRLLLAGSGCESTQATVEMTVSMAQVGADAAMVVTPCYYRGRMSSAALIHHYTKVADLSPIPVVLYSVPANTGLDLPVDAVVTLSQHPNIVGMKDSGGDVTRIGLIVHKTRKQDFQVLAGSAGFLMASYALGAVGGVCALANVLGAQVCQLERLCCTGQWEDAQKLQHRLIEPNAAVTRRFGIPGLKKIMDWFGYYGGPCRAPLQELSPAEEEALRMDFTSNGWL"
measure_unit = "s⁻¹"
quantitative_result = 6.1

[[record]]
protein = "human HOGA (hHOGA) (Homo sapiens; S77A) (protein, His-tag (WT, Y140F) cleavable by PreScission leaving GPH, 33,097 Da tag-free; S77, N78 and S198 mutants as MBP fusion, MBP cleaved; tetramer) ASGEGKKVDIAGIYPPVTTPFTATAEVDYGKLEENLHKLGTFPFRGFVVQGANGEFPFLTSSERLEVVSRVRQAMPKNRLLLAGSGCESTQATVEMTVSMAQVGADAAMVVTPCYYRGRMSSAALIHHYTKVADLSPIPVVLYSVPANTGLDLPVDAVVTLSQHPNIVGMKDSGGDVTRIGLIVHKTRKQDFQVLAGSAGFLMASYALGAVGGVCALANVLGAQVCQLERLCCTGQWEDAQKLQHRLIEPNAAVTRRFGIPGLKKIMDWFGYYGGPCRAPLQELSPAEEEALRMDFTSNGWL"
measure_unit = "s⁻¹"
quantitative_result = 2.5


Query protein follows.
human HOGA (hHOGA) (Homo sapiens; Y140F) (protein, His-tag (WT, Y140F) cleavable by PreScission leaving GPH, 33,097 Da tag-free; S77, N78 and S198 mutants as MBP fusion, MBP cleaved; tetramer) ASGEGKKVDIAGIYPPVTTPFTATAEVDYGKLEENLHKLGTFPFRGFVVQGSNGEFPFLTSSERLEVVSRVRQAMPKNRLLLAGSGCESTQATVEMTVSMAQVGADAAMVVTPCFYRGRMSSAALIHHYTKVADLSPIPVVLYSVPANTGLDLPVDAVVTLSQHPNIVGMKDSGGDVTRIGLIVHKTRKQDFQVLAGSAGFLMASYALGAVGGVCALANVLGAQVCQLERLCCTGQWEDAQKLQHRLIEPNAAVTRRFGIPGLKKIMDWFGYYGGPCRAPLQELSPAEEEALRMDFTSNGWL has a reported kcat of 5.2
